assay_explanation: PSAC antagonists in infected red cells, primary screen, cell-based, P. falciparum Indochina, OD700, 1 h (AID 1154)
condition_info: P. falciparum Indochina infected RBC osmotic lysis, higher = more signal, called active from +8 up or from −8 down
Listed here: items and their measured z-score.
Respond numerically, and do not add a unit to the figure.

Illustrative cases are given below, each with its answer.
Record summary for CC(C)N1CC=CC23O[C@@H]4C=CCCOC(=O)C4[C@H]2C(=O)N(CCCCCCO)[C@@H]3C1=O (stereo partly drawn) : reported z-score = 0.156

Record summary for [N-]=[N+]=NCc1ccccc1[C@@H]1OC(c2ccc(OCCCO)cc2)=N[C@]1(Cc1ccccc1)C(=O)N1CCOCC1 : reported z-score = 16.7

With those in mind, consider the next compound.
Record summary for COCCOC(=O)N1C(=O)[C@@]2(c3cc(C#CCNC(N)=O)ccc31)[C@H](c1ccc(O)cc1)N1[C@H](c3ccccc3)[C@H](c3ccccc3)OC(=O)[C@H]1[C@@H]2C(=O)N1CCCCCCC1 : reported z-score = 1.04

---

assay_explanation: P. aeruginosa biofilm formation inhibitors, primary screen, strain PAO1, LB-PBS medium, absorbance 600 nm (AID 1176); also: test concentration not given here
condition_info: P. aeruginosa PAO1 growth/biofilm, A600, 12 h; higher = more signal
Listed here: items and their measured z-score.
Respond numerically, and do not add a unit to the figure.

Record summary for COC(=O)CC=C[C@@H](C)[C@H](OC)c1ccccc1Br : reported z-score = -0.655

Record summary for CCN1C(=O)[C@H]2[C@H]3[C@H](O)[C@H](O)CC(=NO[C@@H]4O[C@H](CO)[C@@H](O)[C@H](O)[C@H]4O)[C@@H]3CC[C@H]2C1=O : reported z-score = -0.343

Record summary for CCCC[C@@H](O)C1=C(C)C[C@H]2C(=O)N(Cc3ccccc3)C(=O)[C@H]2[C@H]1CO : reported z-score = 0.27

Record summary for CCOC(=O)NN=C1C[C@@H](O)[C@@H](O)[C@@H]2[C@@H]3C(=O)N(C(C)(C)C)C(=O)[C@@H]3CC[C@@H]12 : reported z-score = -0.495

Record summary for COC(=O)[C@H]1COC(c2ccc(OCCCO)cc2)=N1 : reported z-score = 0.149

Record summary for CC(=O)OC[C@H]1O[C@H](CCON=C(C)CCN2CCc3nc(-c4ccccc4)c(-c4ccccc4)cc3C2)C=C[C@@H]1OC(C)=O : reported z-score = 0.441

Record summary for COC(=O)CC=C[C@@H](C)[C@@H](C=NO[C@H](C)c1cn([C@@H]2COC[C@H]2O)nn1)OC : reported z-score = 0.666

With those in mind, consider the next compound.
Record summary for CCOC(=O)[C@H](CC(C)C)NC(=O)CCC1CC(OC(=O)NCc2cccc3ccccc23)CC2(CCCC(COC(=O)NCCN3CCOCC3)O2)O1 (stereo partly drawn) : reported z-score = 0.131

---

assay_explanation: HepG2 liver cancer cell viability effects, profiling panel, resazurin fluorescence, 24 h, PK04 Diversity Set (AID 1172); also: test concentration not given here
condition_info: higher = more signal
observable: z-score
Respond numerically, and do not add a unit to the figure.

Illustrative cases are given below, each with its answer.
Record summary for CCOC(=O)[C@H](CC(C)C)NC(=O)CCC1CC(OC(=O)NCCc2ccc(F)cc2)CC2(CCCC(COC(=O)NCc3ccccc3)O2)O1 (some centres undefined) : reported z-score = -0.816

Record summary for COC(=O)[C@]1(CO)N=C(c2ccc(OCCCO)cc2)O[C@@H]1c1ccccc1N=[N+]=[N-] : reported z-score = -0.318

Record summary for COCCOC(=O)N1C(=O)[C@@]2(c3cc(C#Cc4ccc(OC)cc4)ccc31)[C@H](c1ccc(O)cc1)N1[C@H](c3ccccc3)[C@H](c3ccccc3)OC(=O)[C@H]1[C@@H]2C(N)=O : reported z-score = -0.422

With those in mind, consider the next molecule.
Record summary for COC(=O)c1c(CC[C@@H](CO)NC(=O)N[C@H](Cc2ccccc2)Cn2cc(-c3ccccc3N)nn2)oc(C(C)=O)c1C(=O)OC : reported z-score = -0.601
